Listed next: entries and their corresponding pIC50.
Biological target: Recombinant human BRD2(1-473) (Homo sapiens (Human), UniProt P25440)
Sequence (P25440 1-473): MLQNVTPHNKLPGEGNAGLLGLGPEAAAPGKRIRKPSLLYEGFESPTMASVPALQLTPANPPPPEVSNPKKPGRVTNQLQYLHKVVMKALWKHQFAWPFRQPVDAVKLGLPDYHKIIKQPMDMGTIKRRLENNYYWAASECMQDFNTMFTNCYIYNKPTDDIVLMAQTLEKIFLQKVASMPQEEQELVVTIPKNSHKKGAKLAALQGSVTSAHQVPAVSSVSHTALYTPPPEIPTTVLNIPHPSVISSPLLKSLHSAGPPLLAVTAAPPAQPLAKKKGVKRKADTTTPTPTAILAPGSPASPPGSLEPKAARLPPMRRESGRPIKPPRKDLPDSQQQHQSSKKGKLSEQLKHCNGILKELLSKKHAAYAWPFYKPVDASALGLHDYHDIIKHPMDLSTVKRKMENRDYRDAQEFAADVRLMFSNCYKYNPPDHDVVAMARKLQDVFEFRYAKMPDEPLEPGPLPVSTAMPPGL
Experiment: BRD2 TR-FRET biochemical IC50 assay
Type: binding
Settings: TR-FRET, tetra-acetylated histone peptide; read-out: BRD2 IC50
Reminder that pIC50 means the negative base-10 logarithm of the concentration expressed in mol/L.

Please review the following examples before continuing.
| Molecule | pIC50 |
| --- | --- |
| Cc1noc(C)c1-c1ccc2c(c1)C(N[C@H](C)CO)(c1ccccc1)C(=O)N2 (single isomer, unassigned) [Compound 2.10a] | 7.62 |
| Cc1noc(C)c1-c1ccc2c(c1)C(O)(C1CCOCC1)C(=O)N2 (stereo not drawn) [Compound 1.16] | 6.42 |
| Cc1noc(C)c1-c1ccc2c(c1)C(NCC(C)O)(C1CCCCC1)C(=O)N2 (stereo in doubt) [Compound 2.22] | 7.49 |
| Cc1noc(C)c1-c1ccc2c(c1)C(c1ccccc1)(N1CCC[C@H](N)C1)C(=O)N2 (stereo partly drawn) [Compound 2.46] | 8.18 |
| Cc1noc(C)c1-c1ccc2c(c1)C(c1ccccc1)(N1CCC[C@H](O)C1)C(=O)N2 (stereo partly drawn) [Compound 2.16] | 8.02 |

Now, please, on to the next molecule.
Q: Entry Cc1noc(C)c1-c1ccc2c(c1)C(O)(C1CCCCC1=O)C(=O)N2 (single isomer, unassigned) [Compound 1.30a] : reported pIC50 = ?
A: 7.28

====

Target: Recombinant human BRD4(1-477) (Homo sapiens (Human))
Assay: BRD4 TR-FRET biochemical IC50 assay
Assay type: binding
Conditions: TR-FRET, tetra-acetylated histone peptide; read-out: BRD4 IC50
# label = Condition met if IC50 < 0.1 µM else Condition not met

Take a look at these entries with their results.
| Compound | Assay Target | Assigned Label |
| --- | --- | --- |
| Cc1noc(C)c1-c1ccc2c(c1)C(C1CCCCC1)(N1CCOCC1)C(=O)N2 (centres unmarked) [Compound 2.29] | Recombinant human BRD4(1-477) (Homo sapiens (Human)) | Condition met |
| Cc1noc(C)c1-c1ccc2c(c1)C(N[C@@H](CO)C(C)C)(c1ccccc1)C(=O)N2 (single isomer, unassigned) [Compound 2.11b] | Recombinant human BRD4(1-477) (Homo sapiens (Human)) | Condition not met |
| Cc1ccccc1C1(O)C(=O)Nc2ccc(-c3c(C)noc3C)cc21 (centres unmarked) [Compound 1.7] | Recombinant human BRD4(1-477) (Homo sapiens (Human)) | Condition not met |
| Cc1noc(C)c1-c1ccc2c(c1)C(NCC(C)O)(C1CCCCC1)C(=O)N2 (stereo in doubt) [Compound 2.22] | Recombinant human BRD4(1-477) (Homo sapiens (Human)) | Condition met |
| Cc1noc(C)c1-c1ccc2c(c1)C(NCCO)(C1CCCCC1)C(=O)N2 (centres unmarked) [Compound 2.18] | Recombinant human BRD4(1-477) (Homo sapiens (Human)) | Condition met |
| Cc1noc(C)c1-c1ccc2c(c1)C(N[C@@H](C)CO)(C1CCCCC1)C(=O)N2 (some centres unmarked) [Compound 2.23] | Recombinant human BRD4(1-477) (Homo sapiens (Human)) | Condition not met |
| Cc1noc(C)c1-c1ccc2c(c1)C(C1CCCC1)(N1CCOCC1)C(=O)N2 (centres unmarked) [Compound 2.34] | Recombinant human BRD4(1-477) (Homo sapiens (Human)) | Condition not met |

Okay, next one:
Q: Determine whether this compound shows IC50 lower than 0.1 µM (ties excluded): CC#CC1(O)C(=O)Nc2ccc(-c3c(C)noc3C)cc21 (centres unmarked) [Compound 1.22]
A: Condition not met

====

Target: Recombinant human BRD4(1-477) (Homo sapiens (Human), UniProt O60885)
Test: BRD4 TR-FRET biochemical IC50 assay
Assay type: binding
Conditions: TR-FRET, tetra-acetylated histone peptide; read-out: BRD4 IC50
Property Measured: log10 IC50 (log10 of the value in nM)
Form field - Quantity: IC50; Unit: nM; Scale: log10

| Compound | log10 IC50 |
| --- | --- |
| Cc1cc(C2(O)C(=O)Nc3ccc(-c4c(C)noc4C)cc32)ccc1F (centres unmarked) | 2.58 |
| Cc1noc(C)c1-c1ccc2c(c1)C(c1ccccc1)(N1CCC[C@H](N)C1)C(=O)N2 (some centres unmarked) | 1.04 |
| Cc1noc(C)c1-c1ccc2c(c1)C(O)(c1ccsc1)C(=O)N2 (centres unmarked) | 2.00 |

Q: Entry Cc1noc(C)c1-c1ccc2c(c1)C(NCCO)(c1ccsc1)C(=O)N2 (centres unmarked) : reported log10 IC50 = ?
A: 1.69

Q: Entry CC(=O)CC1(O)C(=O)Nc2ccc(-c3c(C)noc3C)cc21 (centres unmarked) : reported log10 IC50 = ?
A: 2.83

Q: Entry Cc1noc(C)c1-c1ccc2c(c1)C(NC(C)C)(C1CCCCC1)C(=O)N2 (centres unmarked) : reported log10 IC50 = ?
A: 1.93

Q: Entry Cc1noc(C)c1-c1ccc2c(c1)C(c1ccccc1)(N1CCC(O)CC1)C(=O)N2 (centres unmarked) : reported log10 IC50 = ?
A: 1.56

Q: Entry Cc1noc(C)c1-c1ccc2c(c1)C(c1ccsc1)(N1CCC(O)CC1)C(=O)N2 (centres unmarked) : reported log10 IC50 = ?
A: 1.40

====

Molecular target: Recombinant human BRD4(1-477) (Homo sapiens (Human), UniProt O60885)
Assay: BRD4 TR-FRET biochemical IC50 assay
Type: binding
Details: BRD4 IC50, TR-FRET, tetra-acetylated histone peptide
Property Measured: IC50 (nM)
Respond with the bare value in nM.

Q: Entry Cc1noc(C)c1-c1ccc2c(c1)C(O)(c1ccsc1)C(=O)N2 (single isomer, unassigned) [Compound 4.1b] : reported IC50 = ?
A: 34

====

Listed next: entries and their corresponding pIC50.
Target: Recombinant human BRD4(1-477) (Homo sapiens (Human))
Assay: BRD4 TR-FRET biochemical IC50 assay
Assay type: binding
Conditions: TR-FRET, tetra-acetylated histone peptide; read-out: BRD4 IC50
Reminder that pIC50 means the negative base-10 logarithm of the concentration expressed in mol/L.

Please review the following examples before continuing.
| Molecule | pIC50 |
| --- | --- |
| Cc1noc(C)c1-c1ccc2c(c1)C(O)(C1CCC1)C(=O)N2 (stereo not shown) | 6.29 |
| COC(=O)[C@H](Cc1cnc[nH]1)NC1(c2ccccc2)C(=O)Nc2ccc(-c3c(C)noc3C)cc21 (stereo partly shown) | 7.05 |
| Cc1noc(C)c1-c1ccc2c(c1)C(O)(C1CCCCC1=O)C(=O)N2 (single isomer, unassigned) [Compound 1.30a] | 7.15 |

Now, please, on to the next molecule.
Q: Entry Cc1noc(C)c1-c1ccc2c(c1)C(c1ccsc1)C(=O)N2 (stereo not shown) : reported pIC50 = ?
A: 6.92

====

Molecular target: Recombinant human BRD4(1-477) (Homo sapiens (Human), UniProt O60885)
Assay: BRD4 TR-FRET biochemical IC50 assay
Assay type: binding
Conditions: TR-FRET, tetra-acetylated histone peptide; read-out: BRD4 IC50
Listed next: entries and their corresponding pIC50.
Reminder that pIC50 means the negative base-10 logarithm of the concentration expressed in mol/L.

| Compound | pIC50 |
| --- | --- |
| Cc1noc(C)c1-c1ccc2c(c1)C(NCCO)(c1ccccc1)C(=O)N2 (centres unmarked) | 7.15 |

Now, please, on to the next compound.
Q: Entry Cc1noc(C)c1-c1ccc2c(c1)C(c1ccccc1)(N1CCCCC1)C(=O)N2 (centres unmarked) : reported pIC50 = ?
A: 7.08

====

Listed next: entries and their corresponding IC50.
Molecular target: Recombinant human BRD4(1-477) (Homo sapiens (Human))
Assay: BRD4 TR-FRET biochemical IC50 assay
Type: binding
Settings: TR-FRET, tetra-acetylated histone peptide; read-out: BRD4 IC50
Respond with the bare value in nM.

Q: Entry Cc1noc(C)c1-c1ccc2c(c1)C(CCCN1CCC(O)CC1)(c1ccccc1)C(=O)N2 (stereo not drawn) : reported IC50 = ?
A: 120

Q: Entry Cc1noc(C)c1-c1ccc2c(c1)C(CCCN1CCN(C)CC1)(c1ccccc1)C(=O)N2 (stereo not drawn) : reported IC50 = ?
A: 53

Q: Entry Cc1noc(C)c1-c1ccc2c(c1)C(CCCN1CCNCC1)(c1ccccc1)C(=O)N2 (stereo not drawn) : reported IC50 = ?
A: 51

Q: Entry Cc1noc(C)c1-c1ccc2c(c1)C(NC(=O)CN(C)C)(c1ccccc1)C(=O)N2 (stereo not drawn) : reported IC50 = ?
A: 320

====

Listed next: entries and their corresponding pIC50.
Target: Recombinant human BRD4(1-477) (Homo sapiens (Human))
Assay: BRD4 TR-FRET biochemical IC50 assay
Format: binding
Settings: TR-FRET, tetra-acetylated histone peptide; read-out: BRD4 IC50
Reminder that pIC50 means the negative base-10 logarithm of the concentration expressed in mol/L.

| Compound | pIC50 |
| --- | --- |
| Cc1noc(C)c1-c1ccc2c(c1)C(c1ccccc1)(N1CCN(CCO)CC1)C(=O)N2 (stereo not shown) [Compound 2.48] | 7.10 |

Q: Entry Cc1noc(C)c1-c1ccc2c(c1)C(c1ccccc1)(N1CCC[C@@H]1CO)C(=O)N2 (stereo partly shown) [Compound 2.55] : reported pIC50 = ?
A: 6.96

Q: Entry Cc1noc(C)c1-c1ccc2c(c1)C(CCO)(c1ccccc1)C(=O)N2 (stereo not shown) [Compound 3.5] : reported pIC50 = ?
A: 6.92

Numbers sourced from patent US9393232B2.
